Please provide measured MIC for the entries that follow.
System: M. bovis (ATCC 35734)
Experiment: microbe, parasite or virus in culture
Type: cell-based
Settings: Mycobacterium tuberculosis variant bovis, ATCC35734
Numbered stars: 1 amine (or outer) side, 2 acyl side, 3 side chain; on linkers, the order of the positions; unused ones are H or OH. Bridge positions count the residues as written; N and C are the ends. Square brackets hold non-standard residues; d marks the D form. Peptide text beside a SMILES is read from it. * marks the point of attachment. ξ: configuration not given here. NMeTrp(4-OMe) = CN[CH](Cc1c[nH]c2cccc(OC)c12)C(=O)O; X1 = O=C(C(N[*:1])C(O)c1ccccc1)[*:2]; NMeI = CC[CH](C)[CH](NC)C(=O)O; ξNMe2Val = CC(C)C(C(=O)*)N(C)C; NMeT = CN[CH](C(=O)O)[CH](C)O; NMeL = CN[CH](CC(C)C)C(=O)O; NMeV = CN[CH](C(=O)O)C(C)C

Request: Fill in the blank: the reported MIC of CC(C)/N=c1\cc2n(-c3ccc(Cl)cc3)c3ccccc3nc-2cc1Nc1ccc(Cl)cc1 is ____.
Result: < 0.2 µM

Request: Fill in the blank: the reported MIC of CO[C@H](c1ccccc1)[C@@H]1NC(=O)[C@H](C)NC(=O)[C@H](C[C@@H](C)CO)N(C)C(=O)[C@H]([C@H](O)c2cn(C(C)(C)[C@@H]3CO3)c3ccccc23)NC(=O)[C@H]([C@H](C)C=C(C)C)NC(=O)[C@H](CC(C)C)N(C)C(=O)[C@H](C(C)C)NC1=O (stereo in doubt) is ____.
Result: < 0.02 µM

Request: Fill in the blank: the reported MIC of CO[C@H]1/C=C/O[C@@]2(C)Oc3c(C)c(O)c4c(O)c(c(/C=N/N5CCN(C)CC5)c(O)c4c3C2=O)NC(=O)/C(C)=C\C=C\[C@H](C)[C@H](O)[C@@H](C)[C@@H](O)[C@@H](C)[C@H](OC(C)=O)[C@@H]1C is ____.
Result: < 0.02 µM

Request: Fill in the blank: the reported MIC of COc1nc2ccc(Br)cc2cc1[C@@H](c1ccccc1)[C@@](O)(CCN(C)C)c1cccc2ccccc12 is ____.
Result: 0.1 µM

Request: Fill in the blank: the reported MIC of C/C=C/C[C@@H]1NC(=O)[C@H](CC(C)C)N2C(=O)C(C[C@H](C)[C@H]2O)N(C)C(=O)[C@H](C)NC(=O)[C@H](Cc2ccc(O)c([N+](=O)[O-])c2)NC(=O)[C@H](CC(C)C)N(C)C(=O)[C@H](Cc2cn(C(C)(C)C3CO3)c3ccccc23)NC1=O (some centres unmarked) is ____.
Result: < 0.02 µM

Request: Fill in the blank: the reported MIC of CCC(C)C(C(=O)NC1C(=O)N(C)C(C(C)O)C(=O)NC(C(C)C)C(=O)N(C)C(CC(C)C)C(=O)NC(C(C)C)C(=O)N(C)C(C(C)C)C(=O)N(C)C(Cc2c[nH]c3cccc(OC)c23)C(=O)NC(C(C)C)C(=O)NC(C(O)c2ccccc2)C(=O)NC(C(C)C)C(=O)OC1C)N(C)C(=O)C(NC(=O)C(C(C)C)N(C)C)C(C)C (centres unmarked) [ECU, ecumicin] (ξNMe2Val-V[NMeI]T[NMeT]V[NMeL]V[NMeV][NMeTrp(4-OMe)]V[X1]V; ester 3-C; configuration not given here) is ____.
Result: < 0.2 µM

Request: Fill in the blank: the reported MIC of NNC(=O)c1ccncc1 is ____.
Result: 0.48 µM

Request: Fill in the blank: the reported MIC of O=[N+]([O-])c1cn2c(n1)OC[C@@H](OCc1ccc(OC(F)(F)F)cc1)C2 is ____.
Result: 0.1 µM
